measurementProtocol: In vivo pharmacokinetic (PK) study in NSG mice
Design: species or system mouse
measurementContext: female, NSG, mouse, plasma, ip, 100 mg/kg, NSG mice, single dose i.p. 100 mg/kg, per mouse; read-out: Clast
reportedProperty: concentration at 24 h (ng/mL)

[
  {
    "compound": "CCCn1cc(-c2nc(Nc3ccc(C(=O)NCCCCNc4cccc5c4C(=O)N(C4CCC(=O)NC4=O)C5=O)cc3)nc3[nH]ccc23)cn1 (stereo not shown)",
    "outputUnit": "ng/mL",
    "dataValue": 98.1
  }
]

---

The following compounds are listed with their measured EC50 values.
Tested on: MHH-CALL-4
measurementProtocol: Cytotoxicity assay (resazurin, 72 hours) in MHH-CALL-4 cells
Assay type: cell-based, human
measurementContext: Homo sapiens, MHHCALL4; Table 6, starred: EC50 from partial dose response curve; read-out: MHHCALL4 EC50 from partial dose response curve

[
  {
    "compound": "CCS(=O)(=O)N1CC(CC#N)(n2cc(-c3nc(Nc4ccc(C(=O)NCCCNC(=O)COc5cccc6c5C(=O)N(C5CCC(=O)NC5=O)C6=O)cc4)nc4[nH]ccc34)cn2)C1 (stereo not shown)",
    "outputUnit": "nM",
    "EC50": 4190
  },
  {
    "compound": "CCS(=O)(=O)N1CC(CC#N)(n2cc(-c3nc(Nc4ccc(C(=O)NCCCN5CCN(c6ccc7c(c6)C(=O)N(C6CCC(=O)NC6=O)C7=O)CC5)cc4)nc4[nH]ccc34)cn2)C1 (stereo not shown)",
    "outputUnit": "nM",
    "EC50": 562
  },
  {
    "compound": "CCS(=O)(=O)N1CC(CC#N)(n2cc(-c3nc(Nc4ccc(C(=O)NCCCCNc5cccc6c5C(=O)N(C5CCC(=O)N(C)C5=O)C6=O)cc4)nc4[nH]ccc34)cn2)C1 (stereo not shown)",
    "outputUnit": "nM",
    "EC50": 51.5
  },
  {
    "compound": "CCS(=O)(=O)N1CC(CC#N)(n2cc(-c3nc(Nc4ccc(C(=O)NCCCNc5ccc6c(c5)C(=O)N(C5CCC(=O)NC5=O)C6=O)cc4)nc4[nH]ccc34)cn2)C1 (stereo not shown)",
    "outputUnit": "nM",
    "EC50": 34.6
  }
]

---

measurementProtocol: Caco-2 cell permeability
Assay type: in vitro ADME
measurementContext: human, Caco-2; A to B (Table 4); read-out: Cac2 Papp A/B

[
  {
    "molecule": "CCS(=O)(=O)N1CC(CC#N)(n2cc(-c3nc(Nc4ccc(C(=O)NCCCCNc5cccc6c5C(=O)N(C5CCC(=O)NC5=O)C6=O)cc4)nc4[nH]ccc34)cn2)C1 (stereo not drawn)",
    "Papp A→B at 2 h": "0.019 ×10⁻⁶ cm/s"
  },
  {
    "molecule": "N#CC[C@H](C1CCCC1)n1cc(-c2nc(Nc3ccc(C(=O)NCCCCNc4cccc5c4C(=O)N(C4CCC(=O)NC4=O)C5=O)cc3)nc3[nH]ccc23)cn1 (stereo partly drawn)",
    "Papp A→B at 2 h": "0.024 ×10⁻⁶ cm/s"
  },
  {
    "molecule": "CCS(=O)(=O)N1CC(CC#N)(n2cc(-c3nc(Nc4ccc(C(=O)NCCN5CCN(c6ccc7c(c6)C(=O)N(C6CCC(=O)NC6=O)C7=O)CC5)cc4)nc4[nH]ccc34)cn2)C1 (stereo not drawn)",
    "Papp A→B at 2 h": "0.002 ×10⁻⁶ cm/s"
  }
]

Data credit: patent US12624038B2
